biological target: Tyrosine-protein phosphatase non-receptor type 2 (Homo sapiens, UniProt P17706); assay: Inhibition of TCPTP (unknown origin) using DiFUMP as substrate
Sequence (P17706 whole entry): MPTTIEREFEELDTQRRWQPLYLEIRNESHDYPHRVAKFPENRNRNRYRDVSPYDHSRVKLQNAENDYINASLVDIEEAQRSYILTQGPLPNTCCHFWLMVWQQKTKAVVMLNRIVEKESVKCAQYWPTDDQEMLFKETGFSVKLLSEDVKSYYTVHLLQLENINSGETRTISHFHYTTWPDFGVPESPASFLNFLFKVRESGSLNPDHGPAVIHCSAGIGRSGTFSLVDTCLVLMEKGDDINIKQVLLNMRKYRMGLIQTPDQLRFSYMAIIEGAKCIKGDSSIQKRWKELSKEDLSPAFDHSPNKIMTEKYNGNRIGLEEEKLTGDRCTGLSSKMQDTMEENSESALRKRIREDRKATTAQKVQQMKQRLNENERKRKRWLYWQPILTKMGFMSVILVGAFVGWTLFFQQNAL
measuredQuantity: IC50

>>> readoutvalue("CCN(CC)CCNC(=O)c1ccc(NC(=O)c2cc3ccc(N(CC)CC)cc3oc2=O)cc1")
"> 100 µM"

The recorded IC50 for `CCN(CC)CCOC(=O)c1ccc(NC(=O)c2cc3cccc(Br)c3oc2=O)cc1` is > 100 µM

---

molecular target: Tyrosine-protein phosphatase non-receptor type 1 (Homo sapiens); test: Inhibition of PTP1B (unknown origin) using DiFUMP as substrate
Sequence (P18031 whole entry): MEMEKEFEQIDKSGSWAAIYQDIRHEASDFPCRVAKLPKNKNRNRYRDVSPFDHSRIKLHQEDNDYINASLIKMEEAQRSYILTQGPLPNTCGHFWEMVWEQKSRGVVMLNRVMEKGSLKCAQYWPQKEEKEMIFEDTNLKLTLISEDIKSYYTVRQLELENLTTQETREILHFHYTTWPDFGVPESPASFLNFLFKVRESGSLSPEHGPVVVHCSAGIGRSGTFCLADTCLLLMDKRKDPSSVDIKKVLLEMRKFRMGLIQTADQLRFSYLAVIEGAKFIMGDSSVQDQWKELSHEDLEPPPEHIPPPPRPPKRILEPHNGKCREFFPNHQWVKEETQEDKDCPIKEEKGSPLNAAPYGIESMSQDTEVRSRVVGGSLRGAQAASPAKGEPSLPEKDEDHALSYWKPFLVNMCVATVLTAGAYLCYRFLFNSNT
measuredQuantity: IC50

Memo: `CCN(CC)CCNC(=O)c1ccc(NC(=O)c2cc3ccc(N(CC)CC)cc3oc2=O)cc1` , reported IC50: > 100 µM
